For each of the compounds below, state its IC50 at 48 h.
# Procedure details: Cytotoxicity in normal cells
# Assay type: cell-based, human
# Details: human, WI-38 normal fibroblasts
Just the number in µM, nothing appended.

Fill in reported IC50 at 48 h for this entry: COc1cc(-c2ccc(-c3ccc(C(=N)N)nc3)s2)cc(OC)c1OC.Cl
51.3

Input COc1ccc(-c2ccc(-c3ccc(C(=N)N)nc3)s2)cc1Cl.Cl , output reported IC50 at 48 h.
23.7

Please supply the value of reported IC50 at 48 h for the item COc1ccc(-c2ccc(-c3ccc(C(=N)N)nc3)s2)cc1.Cl
21.1

For COc1cccc2c1C(=O)c1c(O)c3c(c(O)c1C2=O)C[C@@](O)(C(=O)CO)C[C@@H]3O[C@H]1C[C@H](N)[C@H](O)[C@H](C)O1 [Dox, Doxorubicin, reference compound] , write its IC50 at 48 h.
2.9
